Origin of measurements: ChEMBL document CHEMBL5625229

- Measured Target: ATP-dependent translocase ABCB1 (Homo sapiens)
- Experimental Details: Inhibition of MDR1 (unknown origin) overexpressed in MDCK cells using Calcein-AM as substrate preincubated for 30 mins followed by substrate addition measured after 30 mins by fluorescence based assay
Experimental Readout: pEC50
Conceptually, pEC50 converts a concentration in mol/L into minus its log10.

Before answering, review these 4 worked examples.
Smiles Code: COc1cc2c(cc1OC)CN(CCc1ccc(-n3nnnc3-c3ccccc3OC)cc1)CC2
Result: 6.02
--
Smiles Code: COc1cc2c(cc1OC)CN(CCc1ccc(-n3nnc(/C=C/c4cc(OC)c(OC)c(OC)c4)n3)cc1)CC2
Result: 7.92
--
Smiles Code: COc1cc2c(cc1OC)CN(CCc1ccc(-c3nnc(-c4c(OC)c(OC)cc5ccccc45)o3)cc1)CC2
Result: 7.34
--
Smiles Code: COc1cc2c(cc1OC)CN(CCc1ccc(-c3nnc(-c4ccccc4OC)o3)cc1)CC2
Result: 7.72

Item: `COc1cc2c(cc1OC)CN(CCc1ccc(-n3nnnc3/C=C/c3cc(OC)c(OC)c(OC)c3)cc1)CC2` | pEC50: 5.28

So, `COc1cc2c(cc1OC)CN(CCc1ccc(-n3nnnc3-c3c(OC)c(OC)cc4ccccc34)cc1)CC2` ? Its pEC50 was 5.97

* * *

- Measured Target: Multidrug resistance-associated protein 1 (Homo sapiens, UniProt P33527)
- Sequence (P33527 whole entry): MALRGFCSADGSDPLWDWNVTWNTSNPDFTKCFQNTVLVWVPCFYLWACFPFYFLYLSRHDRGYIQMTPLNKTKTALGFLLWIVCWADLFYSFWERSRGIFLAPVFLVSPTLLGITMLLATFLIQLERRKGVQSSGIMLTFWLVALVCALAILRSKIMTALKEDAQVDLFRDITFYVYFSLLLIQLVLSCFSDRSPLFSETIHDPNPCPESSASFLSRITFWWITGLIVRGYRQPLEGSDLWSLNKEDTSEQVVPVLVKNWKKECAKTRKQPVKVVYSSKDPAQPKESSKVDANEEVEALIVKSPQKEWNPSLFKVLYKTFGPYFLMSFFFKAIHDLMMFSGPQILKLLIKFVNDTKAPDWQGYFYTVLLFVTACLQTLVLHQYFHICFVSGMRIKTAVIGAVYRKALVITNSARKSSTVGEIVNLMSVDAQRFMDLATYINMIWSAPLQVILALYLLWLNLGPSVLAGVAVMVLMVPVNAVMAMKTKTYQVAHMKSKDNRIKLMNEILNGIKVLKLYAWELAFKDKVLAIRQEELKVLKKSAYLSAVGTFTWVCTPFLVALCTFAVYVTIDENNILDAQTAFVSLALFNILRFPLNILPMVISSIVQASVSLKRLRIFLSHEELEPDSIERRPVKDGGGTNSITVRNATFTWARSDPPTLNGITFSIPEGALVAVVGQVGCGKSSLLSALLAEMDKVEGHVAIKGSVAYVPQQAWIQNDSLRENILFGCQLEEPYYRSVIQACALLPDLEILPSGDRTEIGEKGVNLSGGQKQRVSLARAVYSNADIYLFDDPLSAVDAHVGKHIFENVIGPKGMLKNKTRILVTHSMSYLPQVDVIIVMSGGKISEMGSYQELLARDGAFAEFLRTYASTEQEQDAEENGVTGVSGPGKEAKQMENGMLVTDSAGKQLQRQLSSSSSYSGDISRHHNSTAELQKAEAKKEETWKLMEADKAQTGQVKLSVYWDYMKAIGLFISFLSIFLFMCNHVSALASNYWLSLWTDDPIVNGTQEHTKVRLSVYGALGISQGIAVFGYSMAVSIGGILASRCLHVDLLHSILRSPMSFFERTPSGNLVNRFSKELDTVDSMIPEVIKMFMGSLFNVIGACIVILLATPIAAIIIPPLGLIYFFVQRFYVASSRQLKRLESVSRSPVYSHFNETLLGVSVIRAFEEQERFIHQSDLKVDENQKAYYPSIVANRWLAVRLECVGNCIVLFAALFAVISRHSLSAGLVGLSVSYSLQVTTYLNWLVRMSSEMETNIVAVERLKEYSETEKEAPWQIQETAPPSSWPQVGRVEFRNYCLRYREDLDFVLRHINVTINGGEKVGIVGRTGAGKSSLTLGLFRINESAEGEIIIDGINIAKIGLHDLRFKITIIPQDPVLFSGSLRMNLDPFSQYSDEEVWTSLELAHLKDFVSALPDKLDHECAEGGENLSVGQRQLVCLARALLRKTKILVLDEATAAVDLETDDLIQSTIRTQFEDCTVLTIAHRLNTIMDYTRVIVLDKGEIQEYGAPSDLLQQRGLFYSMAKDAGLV
- Experimental Details: Inhibition of MRP1 (unknown origin) overexpressed in MDCK cells using Calcein-AM as substrate preincubated for 30 mins followed by substrate addition measured after 30 mins by fluorescence based assay
Recorded EC50, one value per entry.

Worked cases, EC50 given:
Smiles Code: COc1cc2c(cc1OC)CN(CCc1ccc(-n3nnnc3-c3ccc(OC)c(OC)c3OC)cc1)CC2
Measured Target: Multidrug resistance-associated protein 1 (Homo sapiens, UniProt P33527)
EC50: 7.49 µM
--
Smiles Code: COc1cc2c(cc1OC)CN(CCc1ccc(-n3nnnc3-c3cc(OC)c(OC)c(OC)c3)cc1)CC2
Measured Target: Multidrug resistance-associated protein 1 (Homo sapiens, UniProt P33527)
EC50: 4.33 µM
--
Smiles Code: COc1cc2c(cc1OC)CN(CCc1ccc(-n3nnnc3-c3ccccc3OC)cc1)CC2
Measured Target: Multidrug resistance-associated protein 1 (Homo sapiens, UniProt P33527)
EC50: > 100 µM
--
Smiles Code: COc1cc2c(cc1OC)CN(CCc1ccc(-c3nnc(-c4c(OC)cccc4OC)o3)cc1)CC2
Measured Target: Multidrug resistance-associated protein 1 (Homo sapiens, UniProt P33527)
EC50: > 100 µM
--
Smiles Code: COc1cc2c(cc1OC)CN(CCc1ccc(-n3nnnc3-c3c(OC)c(OC)cc4ccccc34)cc1)CC2
Measured Target: Multidrug resistance-associated protein 1 (Homo sapiens, UniProt P33527)
EC50: > 100 µM
--
Smiles Code: COc1cc2c(cc1OC)CN(CCc1ccc(-c3nnc(-c4cc(OC)c(OC)c(OC)c4)o3)cc1)CC2
Measured Target: Multidrug resistance-associated protein 1 (Homo sapiens, UniProt P33527)
EC50: > 100 µM
--
Smiles Code: COc1cc2c(cc1OC)CN(CCc1ccc(-n3nnnc3/C=C/c3cc(OC)c(OC)c(OC)c3)cc1)CC2
Measured Target: Multidrug resistance-associated protein 1 (Homo sapiens, UniProt P33527)
EC50: > 100 µM
--
Smiles Code: COc1cc2c(cc1OC)CN(CCc1ccc(-c3nnc(-c4cccc(OC)c4OC)o3)cc1)CC2
Measured Target: Multidrug resistance-associated protein 1 (Homo sapiens, UniProt P33527)
EC50: > 100 µM

The recorded EC50 for entry `COc1cc2c(cc1OC)CN(CCc1ccc(-c3nnc(-c4c(OC)ccc5ccccc45)o3)cc1)CC2` equals > 100 µM

Reported EC50 of `COc1cc2c(cc1OC)CN(CCc1ccc(-n3nnc(/C=C/c4cc(OC)c(OC)c(OC)c4)n3)cc1)CC2` : > 100 µM

* * *

- Experimental Details: Efflux ratio of apparent permeability across basal to apical membrane over apical to basal membrane in human Caco-2 cells at 100 uM incubated fro 120 mins by spectroscopy
- Assay type: ADME, cell-based
efflux ratio at 2 h, 100 µM by entry:

Solved entries:
Smiles Code: COc1cc2c(cc1OC)CN(CCc1ccc(-n3nnnc3-c3c(OC)c(OC)cc4ccccc34)cc1)CC2
Result: 3.3

Smiles Code: COc1cc2c(cc1OC)CN(CCc1ccc(-c3nnc(-c4ccccc4OC)o3)cc1)CC2
Result: 6.3

Smiles Code: COc1cc2c(cc1OC)CN(CCc1ccc(-c3nnc(-c4c(OC)c(OC)cc5ccccc45)o3)cc1)CC2
Result: 9.7

Smiles Code: COc1cc2c(cc1OC)CN(CCc1ccc(-n3nnc(/C=C/c4cc(OC)c(OC)c(OC)c4)n3)cc1)CC2
Result: 5.4

Smiles Code: COc1cc2c(cc1OC)CN(CCc1ccc(NC(=O)c3cc(OC)c(OC)cc3NC(=O)c3cnc4ccccc4c3)cc1)CC2
Result: 22

Value of measured efflux ratio at 2 h, 100 µM for the entry `COc1cc2c(cc1OC)CN(CCc1ccc(-n3nnc(-c4c(OC)ccc5ccccc45)n3)cc1)CC2` : 4.5

// recorded efflux ratio at 2 h, 100 µM for `COc1cc2c(cc1OC)CN(CCc1ccc(-c3nnc(-c4cccc(OC)c4OC)o3)cc1)CC2` : 6.8

Looking up `COc1cc2c(cc1OC)CN(CCc1ccc(-c3nnc(-c4ccc(OC)c(OC)c4OC)o3)cc1)CC2` , I found its efflux ratio at 2 h, 100 µM recorded as 6.5

* * *

- Measured Target: ATP-dependent translocase ABCB1 (Homo sapiens, UniProt P08183)
- Sequence (P08183 whole entry): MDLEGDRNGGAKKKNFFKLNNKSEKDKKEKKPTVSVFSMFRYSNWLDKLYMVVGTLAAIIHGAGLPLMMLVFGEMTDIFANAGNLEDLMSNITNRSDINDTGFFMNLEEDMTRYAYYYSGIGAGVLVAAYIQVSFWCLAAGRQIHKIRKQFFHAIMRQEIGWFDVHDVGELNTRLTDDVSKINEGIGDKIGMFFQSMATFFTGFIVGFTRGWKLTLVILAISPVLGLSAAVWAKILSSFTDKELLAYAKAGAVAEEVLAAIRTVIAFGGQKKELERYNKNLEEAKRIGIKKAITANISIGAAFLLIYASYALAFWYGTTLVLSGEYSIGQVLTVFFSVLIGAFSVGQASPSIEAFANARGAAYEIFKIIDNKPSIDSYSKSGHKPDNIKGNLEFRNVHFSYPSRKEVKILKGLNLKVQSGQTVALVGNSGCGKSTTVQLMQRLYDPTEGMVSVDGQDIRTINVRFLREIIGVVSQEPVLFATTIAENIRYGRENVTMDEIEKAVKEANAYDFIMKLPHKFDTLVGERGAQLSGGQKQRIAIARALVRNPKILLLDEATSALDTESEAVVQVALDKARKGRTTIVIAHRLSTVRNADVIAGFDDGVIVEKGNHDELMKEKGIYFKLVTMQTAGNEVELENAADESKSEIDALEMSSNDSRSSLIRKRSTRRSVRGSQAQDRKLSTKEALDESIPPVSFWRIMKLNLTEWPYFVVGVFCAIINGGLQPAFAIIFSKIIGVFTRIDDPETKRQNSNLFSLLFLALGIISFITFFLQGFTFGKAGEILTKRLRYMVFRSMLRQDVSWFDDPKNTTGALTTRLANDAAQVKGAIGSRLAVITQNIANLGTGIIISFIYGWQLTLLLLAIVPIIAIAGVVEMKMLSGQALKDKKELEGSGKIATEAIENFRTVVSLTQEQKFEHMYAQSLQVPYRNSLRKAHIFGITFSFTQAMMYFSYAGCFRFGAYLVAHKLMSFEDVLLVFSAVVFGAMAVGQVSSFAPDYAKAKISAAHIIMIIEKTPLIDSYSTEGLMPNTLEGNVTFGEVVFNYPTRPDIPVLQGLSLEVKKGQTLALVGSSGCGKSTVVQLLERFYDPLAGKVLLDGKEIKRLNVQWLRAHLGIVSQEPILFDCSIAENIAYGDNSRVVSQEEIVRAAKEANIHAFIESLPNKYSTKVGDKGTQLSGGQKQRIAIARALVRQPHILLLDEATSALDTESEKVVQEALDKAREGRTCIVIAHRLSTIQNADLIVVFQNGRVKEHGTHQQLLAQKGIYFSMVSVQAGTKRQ
- Experimental Details: Inhibition of MDR1 (unknown origin) overexpressed in MDCK cells using Calcein-AM as substrate preincubated for 30 mins followed by substrate addition measured after 30 mins by fluorescence based assay
Experimental Readout: pEC50
When answering, recall that pEC50 equals minus log10 of the concentration in mol/L, and write that number alone.

Smiles Code: COc1cc2c(cc1OC)CN(CCc1ccc(-n3nnc(-c4ccccc4OC)n3)cc1)CC2
Experimental Readout: pEC50
Result: 7.09

Smiles Code: COc1cc2c(cc1OC)CN(CCc1ccc(-n3nnc(-c4cc(OC)c(OC)c(OC)c4)n3)cc1)CC2
Experimental Readout: pEC50
Result: 6.59

Smiles Code: COc1cc2c(cc1OC)CN(CCc1ccc(-n3nnc(-c4cccc(OC)c4OC)n3)cc1)CC2
Experimental Readout: pEC50
Result: 6.85

Smiles Code: COc1cc2c(cc1OC)CN(CCc1ccc(-n3nnc(-c4c(OC)ccc5ccccc45)n3)cc1)CC2
Experimental Readout: pEC50
Result: 7.05

Smiles Code: COc1cc2c(cc1OC)CN(CCc1ccc(-c3nnc(-c4cccc(OC)c4OC)o3)cc1)CC2
Experimental Readout: pEC50
Result: 6.40

Note to self: pEC50 recorded for `COc1cc2c(cc1OC)CN(CCc1ccc(-n3nnc(-c4ccc(OC)c(OC)c4OC)n3)cc1)CC2` was 6.26

Record `COc1cc2c(cc1OC)CN(CCc1ccc(-n3nnnc3-c3c(OC)ccc4ccccc34)cc1)CC2` . Reported pEC50: 6.12

What the record says about `COc1cc2c(cc1OC)CN(CCc1ccc(-c3nnc(-c4ccc(OC)c(OC)c4OC)o3)cc1)CC2` : pEC50 is 6.36

The compound `COc1cc2c(cc1OC)CN(CCc1ccc(-n3nnc(-c4c(OC)c(OC)cc5ccccc45)n3)cc1)CC2` showed pEC50 equal to 6.59

* * *

- Measured Target: ATP-dependent translocase ABCB1 (Homo sapiens, UniProt P08183)
- Experimental Details: Inhibition of MDR1 (unknown origin) overexpressed in MDCK cells using Calcein-AM as substrate preincubated for 30 mins followed by substrate addition measured after 30 mins by fluorescence based assay
Catalogue of EC50 readings, one per entry.
Respond with a number, then the unit of measure.

Smiles Code: COc1cc2c(cc1OC)CN(CCc1ccc(-n3nnnc3-c3ccc(OC)c(OC)c3OC)cc1)CC2
Experimental Readout: EC50
Result: 750 nM

Sample `COc1cc2c(cc1OC)CN(CCc1ccc(-n3nnnc3-c3cc(OC)c(OC)c(OC)c3)cc1)CC2` ; EC50 observed: 630 nM

Sample `COc1cc2c(cc1OC)CN(CCc1ccc(-c3nnc(-c4cc(OC)c(OC)c(OC)c4)o3)cc1)CC2` ; EC50 observed: 71 nM
